We begin with a simple list: items and their reported fraction unbound.
# testDetails: Plasma protein binding (PPB), rat
# Format: in vitro ADME
# testConditions: read-out: PPB (R) (converted)
reportedMetric: fraction unbound

INSERT INTO assay_data (compound, observedmeasurement) VALUES
  ('C[C@H](NC(=O)Nc1ccc(S(=O)(=O)Cc2ccc3c(c2)CCN(C)C3)cc1)c1cccc(Cl)c1Cl', 0.0087),
  ('C[C@H](NC(=O)Nc1ccc(S(=O)(=O)Cc2ccc(CO)cc2)cc1)c1cccc(Cl)c1Cl', 0.0018),
  ('C[C@H](NC(=O)Nc1ccc(S(=O)(=O)Cc2ccc3c(c2)CNC3)cc1)c1ccccc1', 0.065),
  ('C[C@H](NC(=O)Nc1ccc(S(=O)(=O)Nc2ccc(CO)cc2)cc1)c1cccc(Cl)c1Cl', 0.0012),
  ('CC(NC(=O)Nc1ccc(S(=O)(=O)Cc2ccc3c(c2)CNC3)cc1)c1ccccc1.Cl (centres unmarked)', 0.055);

The values you see were collected from patent US10501479B2.
